# Experimental target: recombinant human GST-Syk (Homo sapiens)
# Protocol: Homogeneous Time-Resolved Fluorescence (HTRF) assay for the recombinant human Syk enzyme
# Assay context: recombinant human GST-Syk 5 pM, ATP 25 μM, 45 min at rt, read-out: rhSyk
Entries whose IC50 is below 0.5 nM take condition met; entries at or above 0.5 nM take condition not met.

INSERT INTO assay_data (compound, assigned_category) VALUES
  ('CCc1ccnc(Nc2cc(C)cc(-c3cnc([C@@]4(O)CCCc5cc(C(=O)O)ccc54)s3)n2)c1', 'condition met'),
  ('Cc1cc(Nc2cc(C(F)(F)F)ccn2)nc(-c2cnc(C3(O)CCc4cc(C(=O)O)c(F)cc43)s2)c1 (single isomer, unassigned) [Example 1C]', 'condition met'),
  ('Cc1cc(Nc2cc(C3CCC(C)CC3)ccn2)nc(-c2cnc([C@@]3(O)CCCc4cc(C(=O)O)ccc43)s2)c1 (stereo partly drawn)', 'condition not met'),
  ('Cc1cc(Nc2cc(C(F)(F)F)ccn2)nc(-c2cnc(C3(O)CCCc4c3ccc(C(=O)O)c4F)s2)c1 (single isomer, unassigned) [Example 1i]', 'condition not met'),
  ('Cc1cc(Nc2cc(-c3c[nH]nn3)ccn2)nc(-c2cnc([C@@]3(O)CCCc4cc(C(=O)N(C)C)ccc43)s2)c1', 'condition not met'),
  ('Cc1cc(Nc2cc(-c3cn[nH]c3)ccn2)nc(-c2cnc(C3(O)CCCc4cc(C(=O)N(C)C)ccc43)s2)c1 (single isomer, unassigned) [Example 4C-2]', 'condition not met'),
  ('CCCOc1ccnc(Nc2cc(C)cc(-c3cnc([C@@]4(O)CCc5cc(C(=O)O)ccc54)s3)n2)c1', 'condition met'),
  ('Cc1cc(Nc2cc(C(F)F)ccn2)nc(-c2cnc([C@@]3(O)CCc4cc(C(=O)O)ccc43)s2)c1', 'condition met'),
  ('Cc1cc(Nc2cc(C(F)(F)F)ccn2)nc(-c2cnc(C3(O)CCCc4cc(C(=O)O)c(Cl)cc43)s2)c1 (single isomer, unassigned) [Example 1E]', 'condition not met'),
  ('Cc1cc(Nc2cc(C(F)(F)F)ccn2)nc(-c2cnc([C@@]3(O)CCCc4c3ccc(C(=O)O)c4O)s2)c1 (single isomer, unassigned) [Example 7B]', 'condition met'),
  ('Cc1cc(Nc2cc(-c3cn[nH]c3)ccn2)nc(-c2cnc(C3(O)CCCc4cc(C(=O)O)ccc43)s2)c1 (single isomer, unassigned) [Example 4B-2]', 'condition not met');

The reported numbers originate from patent US20150284381A1.
